Origin of measurements: the Immune Epitope Database (IEDB)

molecular target: HLA-A*31:01; experiment: IEDB peptide-MHC binding, purified MHC/direct/fluorescence; filed as Kd, often an IC50 or EC50 that approximates it; bounds were set here for any values at or beyond the usual limits of such assays; conditions: source organism: Marburg virus - Musoke, Kenya, 1980
pKd: −log10 of the molar value.
endpoint_label: pKd

> print(dat)
   sequence.record  system.name  value.observed
1        KRLLLKLDF  HLA-A*31:01          ≤ 4.70

// next item, pKd requested
Prompt: Name the recorded pKd of the item NQECWDSVF in your answer.
Response: ≤ 4.70

----------
molecular target: HLA-B*40:02; assay: IEDB peptide-MHC binding, purified MHC/competitive/radioactivity; filed as Kd, often an IC50 or EC50 that approximates it; bounds were set here for any values at or beyond the usual limits of such assays; conditions: source organism: SARS coronavirus Tor2
# Kd annotations
Numbers only here, please. The scale is µM.

> print(dat)
   sequence.record  readout.unit  value.observed
1       YECLYRNRDV            µM            1.72
2        SEETGTLIV            µM            7.26
3        GEDIQLLKA            µM            2.73

Prompt: State its Kd: SELVIGAVII
Response: 1.18

Prompt: Identify Kd associated with the sequence KENDSKEGFF
Response: 0.366

Prompt: Supply reported Kd belonging to this sequence: YEQYIKWPWY
Response: 7.6

Prompt: Return value of Kd for input KEGFFTYLCG , no commentary.
Response: 3.75

Prompt: Give me measured Kd, please, for this sequence: AEMDGIQYG
Response: 1.31

----------
molecular target: HLA-A*29:02; assay: IEDB peptide-MHC binding, purified MHC/competitive/fluorescence; filed as Kd, often an IC50 or EC50 that approximates it; bounds were set here for any values at or beyond the usual limits of such assays; details: source organism: Campylobacter jejuni subsp. jejuni NCTC 11168 = ATCC 700819
endpoint_label: pKd
For clarity, pKd is expressed as the negative log10 of concentration in mol/L.

Prompt: Report its pKd with HLA-A*29:02 as the test system: LYAYWYHLY
Response: 9.10

----------
target: HLA-B*58:01; test: IEDB peptide-MHC binding, purified MHC/direct/fluorescence; filed as Kd, often an IC50 or EC50 that approximates it; bounds were set here for any values at or beyond the usual limits of such assays; conditions: source organism: Pseudomonas putida
endpoint_label: pKd
Reminder that pKd means the negative base-10 logarithm of the concentration expressed in mol/L.

Prompt: Consider the sequence IVHPPMLYM and give its recorded pKd.
Response: 5.22

----------
biological target: HLA-A*02:06; assay: IEDB peptide-MHC binding, purified MHC/competitive/radioactivity; filed as Kd, often an IC50 or EC50 that approximates it; bounds were set here for any values at or beyond the usual limits of such assays; conditions: source organism: Dengue virus 3 Sri Lanka/1266/2000
endpoint_label: Kd

Prompt: Please look at this sequence and report its Kd: YQLWTALVSL
Response: 5.87 nM

----------
biological target: HLA-B*08:01; test: IEDB peptide-MHC binding, purified MHC/direct/fluorescence; filed as Kd, often an IC50 or EC50 that approximates it; bounds were set here for any values at or beyond the usual limits of such assays; conditions: source organism: Influenza A virus (A/England/627/01(H1N2))
pKd: −log10 of the molar value.
endpoint_label: pKd

Prompt: Return pKd (reported value) for this sequence: KMARLGKGY
Response: ≤ 4.70

----------
target: HLA-A*02:11; assay: IEDB peptide-MHC binding, purified MHC/direct/fluorescence; filed as Kd, often an IC50 or EC50 that approximates it; bounds were set here for any values at or beyond the usual limits of such assays; details: source organism: Vibrio vulnificus CMCP6
endpoint_label: Kd

Prompt: Specify Kd for MPIAAAIGT and stop.
Response: ≥ 20 µM

----------
molecular target: HLA-A*02:06; assay: IEDB peptide-MHC binding, purified MHC/competitive/fluorescence; filed as Kd, often an IC50 or EC50 that approximates it; bounds were set here for any values at or beyond the usual limits of such assays; conditions: source organism: Orthomarburgvirus marburgense
endpoint_label: Kd (µM)
Please respond with the number in µM and leave the unit unwritten.

Prompt: Specify reported Kd for the sequence shown: KRLLLKLDF
Response: 3.93

----------
target: HLA-B*15:01; assay: IEDB peptide-MHC binding, purified MHC/competitive/fluorescence; bounds were set here for any values at or beyond the usual limits of such assays; details: source organism: Variola virus
endpoint_label: pIC50
By convention, pIC50 is the negative base-10 log of a molar concentration.

Prompt: Supply reported pIC50 belonging to this sequence: AQREIFSAW
Response: 5.19

----------
Each entry below lists one item and its recorded Kd value.
biological target: HLA-A*68:23; assay: IEDB peptide-MHC binding, purified MHC/competitive/fluorescence; filed as Kd, often an IC50 or EC50 that approximates it; bounds were set here for any values at or beyond the usual limits of such assays; conditions: source organism: Yersinia pestis Nepal516
Number only, in nM; omit the unit.

> print(dat)
   sequence.record  value.observed
1        FYFNWNTPI            23.5

Then this sequence:
Prompt: Output Kd of MPFAWQFGF
Response: 2.7

----------
molecular target: HLA-A*03:01; assay: IEDB peptide-MHC binding, purified MHC/competitive/fluorescence; filed as Kd, often an IC50 or EC50 that approximates it; bounds were set here for any values at or beyond the usual limits of such assays; details: source organism: Zaire ebolavirus
endpoint_label: Kd (nM)
Number only, in nM; omit the unit.

Prompt: State Kd (HLA-A*03:01) of SLLHESTLK .
Response: 24.1

----------
target: HLA-A*33:01; experiment: IEDB peptide-MHC binding, purified MHC/competitive/radioactivity; filed as Kd, often an IC50 or EC50 that approximates it; bounds were set here for any values at or beyond the usual limits of such assays; conditions: source organism: Dengue virus 1 Brazil/97-11/1997
endpoint_label: pKd
# log scale: pKd equals minus log10 of the concentration in mol/L

Prompt: Supply reported pKd belonging to this sequence: RFWDLVHRER
Response: 7.71

----------
Reported Kd values for a set of sequences
target: HLA-A*02:17; test: IEDB peptide-MHC binding, purified MHC/competitive/radioactivity; filed as Kd, often an IC50 or EC50 that approximates it; bounds were set here for any values at or beyond the usual limits of such assays; details: source organism: Dengue virus 3 Sri Lanka/1266/2000
Express the reported value numerically, then name its unit.

> print(dat)
   sequence.record  endpoint.label  value.observed
1       LMMILPAALA              Kd         1.84 µM

Then this sequence:
Prompt: Return the recorded Kd value; entry: CLMMILPAAL
Response: 0.17 µM

----------
target: HLA-B*58:01; test: IEDB peptide-MHC binding, purified MHC/direct/fluorescence; filed as Kd, often an IC50 or EC50 that approximates it; bounds were set here for any values at or beyond the usual limits of such assays; conditions: source organism: SARS-CoV1
# pKd values compiled below
When answering, recall that pKd equals minus log10 of the concentration in mol/L, and write that number alone.

> print(dat)
   sequence.record  endpoint.label  value.observed
1        TSSDTYACW             pKd            7.84

Let's switch to this sequence now.
Prompt: Note pKd for the sequence shown: RLYYDSMSY
Response: 6.11

----------
Here the recorded Kd is given for each entry.
target: HLA-B*44:03; assay: IEDB peptide-MHC binding, purified MHC/competitive/radioactivity; filed as Kd, often an IC50 or EC50 that approximates it; bounds were set here for any values at or beyond the usual limits of such assays; settings: source organism: Dengue virus 3 Martinique/1243/1999
Output spec: scalar in nM, unitless text.

Below are worked cases with known answers.
> print(dat)
   sequence.record  endpoint.label  value.observed
1       QKEGVFHTMW              Kd             411
2        LEFFMMVLL              Kd            2640
3        SETQHGTIL              Kd             127

Prompt: Could you please provide reported Kd for LEFFMMVLLI ? Thanks!
Response: 9210

Prompt: Determine its reported Kd: DENPYKTWAY
Response: 8.64

----------
biological target: HLA-A*32:15; experiment: IEDB peptide-MHC binding, purified MHC/competitive/fluorescence; filed as Kd, often an IC50 or EC50 that approximates it; bounds were set here for any values at or beyond the usual limits of such assays; conditions: source organism: Salmonella enterica subsp. enterica serovar Typhi
endpoint_label: pKd
Expect pKd as a plain number equal to -log10 of the molar concentration.

Prompt: Quickly give me recorded pKd for WTFTPTTPL
Response: 7.24
